Assay readout: melting point

// worked examples, melting point included
COc1ccc(C2(c3ccc(OCOC(=O)OC(C)C)cc3)C(=O)N(COC(=O)OC(C)C)c3ccccc32)cc1 (stereo not drawn): 63 to 65 °C
O=C1N(CCO)c2c(ccc(F)c2F)C1(c1ccc(O)cc1)c1ccc(F)cc1 (stereo not drawn): 80 to 83 °C
CN1CCN(CCC(=O)Oc2ccc(C3(c4ccc(F)cc4)C(=O)Nc4c3ccc(F)c4F)cc2)CC1 (stereo not drawn): 149 to 151 °C
O=C(Nc1ccccc1)Oc1ccc(C2(c3ccc(OC(=O)Nc4ccccc4)cc3)C(=O)Nc3c2ccc(F)c3F)cc1: 163 to 165 °C
C=CC(=O)Oc1ccc(C2(c3ccc(F)cc3)C(=O)Nc3c2ccc(F)c3C)cc1 (stereo not drawn): 223 to 225 °C

Turning now to a further record.
Problem: melting point for O=C(CCN1CCOCC1)Oc1ccc(C2(c3ccc(F)cc3)C(=O)Nc3c2ccc(F)c3F)cc1 (stereo not drawn) ?
Solution: 174 to 175 °C
